# ASSAY TARGET: T1, Anti-CD28 Fab (SEQ ID NOs: 696, 697)
# T1 construct: In the phage ELISA the Fab was biotinylated and captured on neutravidin coated plates
# T1 sequence (VH, as listed by the source, chain 1 of 2): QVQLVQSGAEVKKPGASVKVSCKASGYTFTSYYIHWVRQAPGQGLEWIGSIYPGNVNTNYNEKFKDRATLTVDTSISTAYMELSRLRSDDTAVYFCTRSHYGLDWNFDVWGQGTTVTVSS
# T1 sequence (VL, as listed by the source, chain 2 of 2): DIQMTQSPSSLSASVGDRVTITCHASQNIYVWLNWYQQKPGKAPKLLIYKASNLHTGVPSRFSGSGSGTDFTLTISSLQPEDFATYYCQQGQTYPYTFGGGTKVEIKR
# PROTOCOL: phage ELISA; plate-bound anti-CD28 Fab pre-incubated with CD28 antigen as competitor, anti-M13 HRP detection
READOUT KIND: Phage binding ELISA, Anti-CD28 Fab signal in the presence of CD28
Enter a number only.

Here are 3 binders together with their reported answers.
Suppose we examine the binder YCDGHAPEYMLKCL (Tested as clonal phage supernatant) [Phage-601] ; what Phage binding ELISA, Anti-CD28 Fab signal in the presence of CD28 value has been reported?
0.07

Now consider YCDGHAPDYMLKCL (Tested as clonal phage supernatant) [Phage-602] and answer again.
0.09

Let us now turn to YCDGHIEEYRAKCL (Tested as clonal phage supernatant) [Phage-596]
0.07

Below: the item to evaluate.
Look up Phage binding ELISA, Anti-CD28 Fab signal in the presence of CD28 for this binder: YCEGHSPQYMWKCL (Tested as clonal phage supernatant) [Phage-593]
0.12
